Tested on: U251 CNS
Assay: NCI tumour cell line growth inhibition, 48 h
This listing pairs molecules with measured TGI.

CC1CCN(c2cc(-c3cc4ccccc4o3)oc(=O)c2C#N)CC1 = > 100 µM
Cc1cc(C)nc(NC(=S)Nc2ccc(Cl)cc2)c1 = > 100 µM

Query: Query TGI on U251 CNS for COC(=O)c1ccc2c(c1)C(=O)c1c-2n(CCCCl)c(=O)c2cc(OC)c(OC)cc12
Reply: > 100 µM

Query: // lookup TGI | system=U251 CNS | key= COC(=O)C1(Cc2ccccc2)Cc2c(C)ccc(C)c2C1=O (stereo unspecified)
Reply: > 100 µM

Query: Checklist item: TGI tested on U251 CNS, entry CCCCC1Cc2cc(OC)ccc2-c2n1c1cc(OC)ccc1[n+]2C (stereo unspecified) (tested in a mixture with another compound) , value?
Reply: > 26.5 µM

Query: Give recorded TGI with U251 CNS for the following molecule: C1=C(c2ccccc2)C(OC2Oc3ccccc3C=C2c2ccccc2)Oc2ccccc21 (stereo unspecified)
Reply: 45.1 µM

Query: Which measured TGI belongs to CCOC(=O)[C@H]1Nc2c(cccc2[N+](=O)[O-])C2c3ccccc3CC21 (stereo partly specified) , tested on U251 CNS?
Reply: > 100 µM

Query: # get_value(readout= TGI, system= U251 CNS) for C=C1C(=O)O[C@@H]2[C@H]1C[C@H](I)[C@@]1(C)CC[C@H](O1)[C@](C)(I)CCCC(C)[C@@H]2O (stereo partly specified)
Reply: 20 µM

Query: Provide the documented TGI with U251 CNS as the system for CCN1C(=O)N2C(OC)c3ccccc3C(Br)C2(OC)C1=O (stereo unspecified)
Reply: > 100 µM

Query: Notebook entry, U251 CNS assay: TGI of Nc1n[nH]c2ccc([C@@H]3Nc4c(F)cc5[nH]ncc5c4[C@H]4C5CCC(C5)[C@@H]34)cc12 (stereo partly specified) = ?
Reply: 17.3 µM

Query: Lab note: need TGI with U251 CNS for entry Cn1c(CC(O)c2nc3ccccc3n2C)nc2ccccc21 (stereo unspecified) , please look it up.
Reply: > 48.8 µM

Query: Give U251 CNS TGI for COC(=O)c1cc2ccccc2c2nc3ccccc3c(Cl)c12
Reply: > 100 µM

Query: Any idea what TGI came out for CC1=CC(=O)c2c(O)c3c(c(O)c2C1=O)C1C(O)C(C3=O)C23C(=O)c4c(O)c(C)cc(O)c4C(O)=C2C(=O)CC(O)C13 (stereo unspecified) on U251 CNS?
Reply: 15.9 µM

Query: Entry CC(=O)OC1COC(Oc2c(C)c3c4c(c2O)[C@@H](C)CC[C@@H]4[C@@H](C)C[C@H]3C=C(C)C)C(O)C1O (stereo partly specified) , system U251 CNS: what TGI was measured?
Reply: 41.6 µM

Query: Notebook: pull reported TGI for U251 CNS, entry COc1ccc2c3c(c(C(=O)O)oc13)C(CCC(=O)O)CC2 (stereo unspecified)
Reply: > 100 µM

Query: Any idea what TGI came out for CO[C@]12C[C@@H](CNC(=O)c3cc(Br)c[nH]3)O[C@H]1NC(=O)N2 on U251 CNS?
Reply: > 100 µM

Query: Requested read-out TGI, target or system U251 CNS, entry C=CC(C)(O)CCC1C(=C)C(O)CC2C(C)(C)CCCC12C (stereo unspecified)
Reply: 28.8 µM

Query: For U251 CNS, provide TGI of CCOc1ccc(/C=C2/C(=O)N=C(N)N=C2N)cc1OCC please.
Reply: > 100 µM

Query: Record lookup: for U251 CNS, what TGI belongs to Brc1ccc(-c2nc(-c3ccc(Br)cc3)n(-c3ccccc3)n2)cc1 ?
Reply: > 100 µM

Query: Please tell me: TGI of COC(=O)C1=Nc2ccc(F)cc2/C1=C/c1sc(=S)[nH]c1O , system U251 CNS?
Reply: 14.2 µM
